TARGET UNDER TEST: Human recombinant carboxy-terminal his-tagged LDHA (amino acids 2-332) (Homo sapiens)
MEASUREMENT NOTES: LDHA enzyme inhibition assay (NADH fluorescence)
CONDITIONS USED: LDHA IC50 (μM), 1 nM LDHA, NADH and pyruvate, stereochemistry of tested sample given
ASSAY ENDPOINT: IC50 (µM)

{"COMPOUND": "O=C1CC(c2ccsc2)(c2cccc(Oc3cc(F)cc(F)c3)n2)NC(=O)C1Sc1ccccc1Cl (stereo not shown)", "RESULT UNIT": "µM", "MEASURED": 0.036}
{"COMPOUND": "CCC1CN(c2ccc(C3(c4ccsc4)CC(=O)C(Sc4ccccc4Cl)C(=O)N3)cc2)CCO1 (stereo not shown)", "RESULT UNIT": "µM", "MEASURED": 0.089}
{"COMPOUND": "O=C1CC(c2ccsc2)(c2cccc(OCCC3CCCC3)n2)NC(=O)C1Sc1ccccc1Cl (single isomer, unassigned) [Example 134]", "RESULT UNIT": "µM", "MEASURED": 0.008}
{"COMPOUND": "O=C1CC(c2ccsc2)(c2cccc(Oc3cccc4cccnc34)n2)NC(=O)C1Sc1ccccc1Cl (stereo not shown) [Example 100]", "RESULT UNIT": "µM", "MEASURED": 0.046}
{"COMPOUND": "O=C1CC(c2ccsc2)(c2cccc(Oc3cccc4ncccc34)n2)NC(=O)C1Sc1ccccc1Cl (single isomer, unassigned) [Example 137]", "RESULT UNIT": "µM", "MEASURED": 0.073}
{"COMPOUND": "O=C1CC(c2ccsc2)(c2cccc(N3CC(C4CCOCC4)C3)n2)NC(=O)C1Sc1ccccc1Cl (stereo not shown) [Example 240]", "RESULT UNIT": "µM", "MEASURED": 0.003}
{"COMPOUND": "O=C1CCC(COc2cccc(C3(c4ccsc4)CC(=O)C(Sc4ccccc4Cl)C(=O)N3)n2)O1 (single isomer, unassigned) [Example 212]", "RESULT UNIT": "µM", "MEASURED": 0.03}
{"COMPOUND": "O=C1CC(c2ccc(N3CCOCC3)cc2)(c2cccc(Br)n2)NC(=O)C1Sc1ccccc1Cl (stereo not shown)", "RESULT UNIT": "µM", "MEASURED": 0.004}
{"COMPOUND": "O=C1CC(c2ccsc2)(c2cccc(Oc3cccc(C(F)(F)F)c3)n2)NC(=O)C1Sc1ccccc1Cl (stereo not shown) [Example 140]", "RESULT UNIT": "µM", "MEASURED": 0.012}
{"COMPOUND": "CN(c1cccc(C(F)(F)F)c1)c1cccc(C2(c3ccsc3)CC(=O)C(Sc3ccccc3Cl)C(=O)N2)n1 (stereo not shown)", "RESULT UNIT": "µM", "MEASURED": 0.233}
{"COMPOUND": "O=C1CC(c2ccsc2)(c2cccc(OCC3COC3)n2)NC(=O)C1Sc1ccccc1Cl (single isomer, unassigned) [Example 225]", "RESULT UNIT": "µM", "MEASURED": 0.103}
{"COMPOUND": "O=C1CC(c2ccsc2)(c2cccc(OC3CCC3)n2)NC(=O)C1Sc1ccccc1Cl (stereo not shown)", "RESULT UNIT": "µM", "MEASURED": 0.322}
{"COMPOUND": "CC(C)(O)CCCOc1cccc(C2(c3ccsc3)CC(=O)C(Sc3ccccc3Cl)C(=O)N2)n1 (single isomer, unassigned) [Example 114]", "RESULT UNIT": "µM", "MEASURED": 0.053}
{"COMPOUND": "O=C1CC(c2ccsc2)(c2cccc(Oc3ccc(F)c(F)c3)n2)NC(=O)C1Sc1ccccc1Cl (single isomer, unassigned) [Example 77]", "RESULT UNIT": "µM", "MEASURED": 0.031}
{"COMPOUND": "COC1CCC(Oc2cccc(C3(c4ccsc4)CC(=O)C(Sc4ccccc4Cl)C(=O)N3)n2)CC1 (stereo not shown)", "RESULT UNIT": "µM", "MEASURED": 0.093}
{"COMPOUND": "O=C1CC(c2ccsc2)(c2cccc(OCCC3CCC3)n2)NC(=O)C1Sc1ccccc1Cl (single isomer, unassigned) [Example 168]", "RESULT UNIT": "µM", "MEASURED": 0.19}
{"COMPOUND": "CC(C)(O)CCOc1cccc(C2(c3ccsc3)CC(=O)C(Sc3ccccc3Cl)C(=O)N2)n1 (single isomer, unassigned) [Example 155]", "RESULT UNIT": "µM", "MEASURED": 0.025}
{"COMPOUND": "COc1ccccc1Oc1cccc(C2(c3ccsc3)CC(=O)C(Sc3ccccc3Cl)C(=O)N2)n1 (stereo not shown) [Example 61]", "RESULT UNIT": "µM", "MEASURED": 0.02}
{"COMPOUND": "O=C1CC(c2cccc(Oc3ccc(F)cc3)n2)(c2ccccc2O)NC(=O)C1Sc1ccccc1Cl (stereo not shown)", "RESULT UNIT": "µM", "MEASURED": 0.009}
{"COMPOUND": "CC(CC1CC1)Oc1cccc(C2(c3ccsc3)CC(=O)C(Sc3ccccc3Cl)C(=O)N2)n1 (single isomer, unassigned) [Example 251]", "RESULT UNIT": "µM", "MEASURED": 0.019}
{"COMPOUND": "CCN(c1ccc(F)cc1)c1cccc(C2(c3ccsc3)CC(=O)C(Sc3ccccc3Cl)C(=O)N2)n1 (stereo not shown)", "RESULT UNIT": "µM", "MEASURED": 0.086}
{"COMPOUND": "O=C1CC(c2ccsc2)(c2cccc(OCc3ccccc3)n2)NC(=O)C1Sc1ccccc1Cl (stereo not shown)", "RESULT UNIT": "µM", "MEASURED": 0.008}
{"COMPOUND": "O=C1CC(c2ccsc2)(c2cccc(OCCC3CC3(F)F)n2)NC(=O)C1Sc1ccccc1Cl (stereo not shown)", "RESULT UNIT": "µM", "MEASURED": 0.039}
{"COMPOUND": "CC(Oc1cccc(C2(c3ccsc3)CC(=O)C(Sc3ccccc3Cl)C(=O)N2)n1)c1ccc(F)c(F)c1 (stereo not shown)", "RESULT UNIT": "µM", "MEASURED": 0.105}
{"COMPOUND": "COCCCOc1cccc(C2(c3ccsc3)CC(=O)C(Sc3ccccc3Cl)C(=O)N2)n1 (single isomer, unassigned) [Example 201]", "RESULT UNIT": "µM", "MEASURED": 0.037}
{"COMPOUND": "CC(Nc1cccc(C2(c3ccsc3)CC(=O)C(Sc3ccccc3Cl)C(=O)N2)n1)C1CC1 (stereo not shown) [Example 332]", "RESULT UNIT": "µM", "MEASURED": 0.168}
{"COMPOUND": "O=C1CC(c2ccsc2)(c2cccc(Oc3ccc(OC(F)(F)F)cc3)n2)NC(=O)C1Sc1ccccc1Cl (stereo not shown)", "RESULT UNIT": "µM", "MEASURED": 0.015}
{"COMPOUND": "O=C1CC(c2ccsc2)(c2cccc(Nc3ccc(F)nc3)n2)NC(=O)C1Sc1ccccc1Cl (stereo not shown)", "RESULT UNIT": "µM", "MEASURED": 0.225}
